src = ChEMBL document CHEMBL1201862

test system: KM12; experiment: NCI tumour cell line growth inhibition, 48 h
Activity calls are given as the source filed them. No stated cut-off is given here; in the data, active = GI50 up to about 1.1 µM and inactive = higher.
Hi! Could you answer with just one of these? YES (active), NO (inactive)

>>> class("CC1=C(C(=O)Nc2ccccc2)C(c2ccc(C)o2)C(C#N)=C(SCc2ccccc2)N1 (centres undefined)")
"NO"
>>> class("Cc1cc(=O)nc(S(=O)(=O)NC(=O)Nc2cccc(Cl)c2)[nH]1")
"NO"
>>> class("O=C1/C(=C/c2ccc(Cl)cc2)N=C(c2ccccc2)N1c1nc2ccccc2s1")
"NO"
>>> class("CC1OC(=O)C(C(C)C)NC(=O)C(C(C)C)OC(=O)C(C(C)C)NC(=O)C(C)OC(=O)C(C(C)C)NC(=O)C(C(C)C)OC(=O)C(C(C)C)NC(=O)C(C)OC(=O)C(C(C)C)NC(=O)C(C(C)C)OC(=O)C(C(C)C)NC1=O (centres undefined)")
"YES"

Q) Hello, I am checking results. What call was entered for O=C(c1ccccc1)c1ccc2cccc(OC3OC(CO)C(O)C(O)C3O)c2n1 (centres undefined) ?
A) NO

Q) Hello, I am checking results. What call was entered for CC(C)CCCC(=O)CCCCCCC(=O)CCN(O)C(=O)C(N)CO (centres undefined) ?
A) NO

Q) Hello, I am checking results. What call was entered for Cc1nc2c(sc3nc4c(cc32)CCC4)c(=O)o1 ?
A) NO

Q) Hello, I am checking results. What call was entered for COc1ccc2oc(=N)c(C(N)=O)cc2c1 ?
A) NO

Q) Hello, I am checking results. What call was entered for NS(=O)(=O)c1nnc(NC(=O)N(c2ccccc2)c2ccccc2)s1 ?
A) NO

Q) Hello, I am checking results. What call was entered for COc1cccc(C2C3=C(COC3=O)Oc3cc4c(cc32)OCO4)c1 (centres undefined) ?
A) YES

Q) Hello, I am checking results. What call was entered for Cc1ccc(-c2nc(C)c(C(=O)Nc3ccc(Cl)cc3)s2)cc1 ?
A) NO
